biological target: T. brucei cathepsin L-like protease (TbrCATL) (Trypanosoma brucei rhodesiense); experiment: TbrCATL inhibition assay, Z-FR-AMC substrate; type: biochemical; settings: at 10 μM
Sequence (Q95PM0 1-450): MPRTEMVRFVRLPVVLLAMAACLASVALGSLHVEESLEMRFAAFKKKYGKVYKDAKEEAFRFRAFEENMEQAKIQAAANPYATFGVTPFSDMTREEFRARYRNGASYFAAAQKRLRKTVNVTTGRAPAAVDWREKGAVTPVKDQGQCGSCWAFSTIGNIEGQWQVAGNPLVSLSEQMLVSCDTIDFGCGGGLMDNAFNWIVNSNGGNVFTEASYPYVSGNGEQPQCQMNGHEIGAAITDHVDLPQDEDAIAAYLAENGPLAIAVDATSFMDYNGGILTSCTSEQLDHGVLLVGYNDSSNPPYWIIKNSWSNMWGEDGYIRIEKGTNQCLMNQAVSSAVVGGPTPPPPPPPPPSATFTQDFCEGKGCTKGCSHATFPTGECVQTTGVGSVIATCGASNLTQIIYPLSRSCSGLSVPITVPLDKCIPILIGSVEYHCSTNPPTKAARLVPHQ
// TbrCATL inhibition (%) lookup, one value per entry
quantity-name: TbrCATL inhibition (%)

# compound, result-value
data = [
    ("C/C(=N\\NC(N)=[Se])c1ccc(Br)cc1 [SeO3]", "99.15%"),
    ("C/C(=N\\NC(N)=S)c1cccc([N+](=O)[O-])c1 [SO5]", "100.00%"),
    ("C/C(=N\\Nc1nc(C)cs1)c1cccc([N+](=O)[O-])c1 [SC5]", "87.70%"),
]

====

molecular target: UniProt Q95PM0; assay: TbrCATL inhibition assay, Z-FR-AMC substrate; type: biochemical; conditions: IC50 TbrCATL (nM), mean ± SD, two experiments in triplicate (n = 6)

# compound, IC50
rows = [
    ("C/C(=N\\NC(N)=[Se])c1ccc(C)cc1 [SeO1]", "17.9 nM"),
    ("C/C(=N\\Nc1nc(C)c[se]1)c1ccc(Br)cc1 [SeC3]", "202 nM"),
]

====

test: in vitro; details: human, CC50 HEK293 (μM)

# molecule, CC50
data = [
    ("C/C(=N\\Nc1nc(C)c[se]1)c1ccc(C)cc1 [SeC1]", "12 µM"),
    ("C/C(=N\\Nc1nc(C)c[se]1)c1ccc(Br)cc1 [SeC3]", "5.9 µM"),
    ("C/C(=N\\NC(N)=[Se])c1cccc([N+](=O)[O-])c1 [SeO5]", "2.29 µM"),
    ("C/C(=N\\Nc1nc(C)c[se]1)c1cccc([N+](=O)[O-])c1 [SeC5]", "9 µM"),
    ("C/C(=N\\NC(N)=[Se])c1ccc(Br)cc1 [SeO3]", "2.7 µM"),
    ("C/C(=N\\NC(N)=[Se])c1ccc(C)cc1 [SeO1]", "4.27 µM"),
]

====

tested on: HepG2 cells; conditions: human

# smiles-string, CC50 / nM
measured = [
    ("C/C(=N\\NC(N)=[Se])c1ccc(Br)cc1", 2700),
]
